These data points were gathered from patent US12077503B2.

Test system: foxtail, giant (giant foxtail, Setaria faberii)
test: Test C preemergence
Type: in vivo
condition: 62 g ai/ha, scale 0 to 100, 0 no effect, 100 complete control
measured.parameter: Plant response rating, Foxtail, Giant
Answers are plain numbers.

Count: 3. Required value per item: Plant response rating, Foxtail, Giant.
1. CN1CC(c2cccc(OC(F)(F)C(F)F)c2)C(C(=O)Nc2cccc(F)c2F)C1=O (centres unmarked) [Compound 392]
2. CN1CC(c2cccc(OC(F)F)c2)C(C(=O)Nc2ccccc2S(C)(=O)=O)C1=O (centres unmarked) [Compound 523]
3. CN1CC(c2cccc(OC(F)F)c2)C(C(=O)Nc2ccc(F)cc2F)C1=O (centres unmarked) [Compound 617]

// result
95
90
90

Provide reported Plant response rating, Foxtail, Giant for each item, in the same order as listed.
1. Cc1ccc(C2CN(C)C(=O)C2C(=O)Nc2ccccc2C(F)(F)F)cc1 (centres unmarked) [Compound 665]
2. CN1CC(c2ccc(C(F)(F)F)c(F)c2)C(C(=O)Nc2ccccc2F)C1=O (centres unmarked) [Compound 399]
3. CN1CC(c2ccc(C(F)(F)F)c(F)c2)C(C(=O)Nc2cccc(F)c2F)C1=O (centres unmarked) [Compound 396]
4. Cc1ccc(C2CN(C)C(=O)C2C(=O)Nc2ccccc2S(C)(=O)=O)cc1 (centres unmarked) [Compound 663]
5. CC(C)Oc1cccc(C2CN(C)C(=O)C2C(=O)Nc2ccccc2S(C)(=O)=O)c1 (centres unmarked) [Compound 653]

// result
1: 95; 2: 95; 3: 98; 4: 95; 5: 95
